Target: Sodium-dependent serotonin transporter (Rattus norvegicus)
Test: Specific binding of [18F]AFA in rat thalamus after citalopram treatment; n=3
Type: functional, tissue-based
Settings: tested as the 18F-labelled form
assay_metric: Specific binding (%ID/g)

Ask: Record lookup: for Sodium-dependent serotonin transporter (Rattus norvegicus), what Specific binding belongs to `CN(C)Cc1ccccc1Sc1ccc(CCCF)cc1N` ?
Result: 0.74

Ask: Record lookup: for Sodium-dependent serotonin transporter (Rattus norvegicus), what Specific binding belongs to `CN(C)Cc1ccccc1Sc1ccc(CCF)cc1N` ?
Result: 0.89

Ask: Record lookup: for Sodium-dependent serotonin transporter (Rattus norvegicus), what Specific binding belongs to `CN(C)Cc1ccccc1Sc1ccc(CF)cc1N` ?
Result: 1.05

Ask: Record lookup: for Sodium-dependent serotonin transporter (Rattus norvegicus), what Specific binding belongs to `CN(C)Cc1ccccc1Sc1ccc(F)cc1N` ?
Result: 0.98
